# Target Of Assay: human MDM2 protein (amino acids 2-188) (Homo sapiens)
# Construct: human MDM2 protein (amino acids 2-188); made in house
# Sequence (Q00987 2-188): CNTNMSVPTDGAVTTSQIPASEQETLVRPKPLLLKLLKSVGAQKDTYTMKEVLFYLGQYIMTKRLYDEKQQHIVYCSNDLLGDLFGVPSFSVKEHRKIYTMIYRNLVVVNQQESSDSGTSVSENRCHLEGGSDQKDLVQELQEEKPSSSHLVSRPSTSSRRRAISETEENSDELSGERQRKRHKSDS
# Method Notes: p53-MDM2 TR-FRET assay, modified (p53-MDM2 Assay 2)
# Type: binding
# Condition Label: 0.1 nM MDM2, 0.1 nM Europium labeled streptavidin; read-out: IC50 (nM) of p53-Hdm2 inhibition (TR-FRET) Assay 2
// IC50 lookup, one value per entry
Hi, when you answer, please include the unit after the number. Thanks!

Solved entries (count: 2):
CCN1C2CCCC1CC(C(C)(O)c1ccc(N3C(=O)Cc4cc(OC)c(OC(C)C)cc4[C@@H]3c3ccc(Cl)cc3)cc1)C2 (stereo partly drawn) = 2.31 nM
COc1cc2c(cc1OC(C)C)[C@H](c1ccc(Cl)cc1)N(c1ccc([C@@](C)(O)C3CC(C)(C)OC(C)(C)C3)cc1)C(=O)C2 (single isomer, unassigned) = 1.26 nM

# context switch: different compound, same IC50
// query Reported IC50 for CNC(=O)N1C2CCC1CC(C(C)(O)c1ccc(N3C(=O)Cc4cc(OC)c(OC(C)C)cc4[C@@H]3c3ccc(Cl)cc3)cc1)C2 (stereo partly drawn) : what is it?
// result 1.7 nM

###

# Target Of Assay: human MDM4 protein (amino acids 2-185) (Homo sapiens, UniProt O15151)
# Construct: human MDM4 protein (amino acids 2-185); made in house
# Sequence (O15151 2-185): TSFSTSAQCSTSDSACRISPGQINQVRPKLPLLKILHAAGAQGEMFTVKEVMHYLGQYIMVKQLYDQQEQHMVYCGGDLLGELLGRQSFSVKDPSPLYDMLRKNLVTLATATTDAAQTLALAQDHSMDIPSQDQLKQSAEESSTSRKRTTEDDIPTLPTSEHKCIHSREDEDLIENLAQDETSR
# Method Notes: p53-MDM4 TR-FRET assay (p53-MDM4 Assay 1)
# Assay type: binding
# Condition Label: 2.5 nM MDM4-biotinylated, 10 nM Cy5-p53 peptide; read-out: IC50 (μM) of p53-Hdm4 inhibition (TR-FRET) Assay 1
Result Type: IC50 (µM)
Please respond with the number in µM and leave the unit unwritten.

Solved entries (count: 2):
COc1cc2c(cc1OC(C)C)[C@H](c1ccc(Cl)cc1)N(c1ccc([C@](C)(O)C3CCS(=O)(=O)CC3)cc1)C(=O)C2 = 51.1
COc1cc2c(cc1OC(C)C)[C@H](c1ccc(Cl)cc1)N(c1ccc(C(C)(O)c3ccc(F)cc3)cc1)C(=O)C2 (stereo partly drawn) = 61.8

// query Entry COc1cc2c(cc1OC(C)C)[C@H](c1ccc(Cl)cc1)N(c1ccc(C(C)(O)C3CC4CCCC(C3)S4(=O)=O)cc1)C(=O)C2 (mixture of isomers) , system human MDM4 protein (amino acids 2-185) (Homo sapiens, UniProt O15151): what IC50 was measured?
// result 3.58

// query Entry CNC(=O)COc1cc2c(cc1OC(C)C)[C@H](c1ccc(Cl)cc1)N(c1ccc(C(C)(O)C3CCOCC3)cc1)C(=O)C2 (stereo partly drawn) , system human MDM4 protein (amino acids 2-185) (Homo sapiens, UniProt O15151): what IC50 was measured?
// result 2.64

// query Entry COc1cc2c(cc1OC(C)C)[C@H](c1ccc(Cl)cc1)N(c1ccc(C(C)(O)C3CN(C4CCN(C)CC4)C3)cc1)C(=O)C2 (stereo partly drawn) , system human MDM4 protein (amino acids 2-185) (Homo sapiens, UniProt O15151): what IC50 was measured?
// result 9.21

// query Entry COc1cc2c(cc1OC(C)C)[C@H](c1ccc(Cl)cc1)N(c1ccc(C(C)(O)C3CC4CCC(C3)O4)cc1)C(=O)C2 (mixture of isomers) , system human MDM4 protein (amino acids 2-185) (Homo sapiens, UniProt O15151): what IC50 was measured?
// result 2.84
